Across several publications, the following pIC50 results were reported for Fibroblast growth factor receptor 2 (Homo sapiens).
pIC50: −log10 of the molar value.

Worked examples, 3 compounds total:
>>> df
                                   compound  parameter_measured  value_observed
0  COc1cc(OC)c(F)c(N2Cc3cnc(Nc4cnn(C)c4)cc3C3(CC3)C2=O)c1F               pIC50          > 7.00
1  COc1cc(OC)c(Cl)c(-c2cc3[nH]nc(-c4cnn(CC(=O)N5CCC(O)C5)c4)c3cn2)c1Cl (stereo not shown)               pIC50          > 7.00
2  C=CC(=O)Nc1cc(N2CCN(CCC(F)(F)F)CC2)cnc1C(=O)Nc1cc(CCc2cc(OC)cc(OC)c2)n[nH]1               pIC50            8.35

*Q* Please report the measured pIC50 for CC(C)n1cnc2cnc(NC(=O)N3CCCc4cc(CN5CCN(C)CC5=O)c(C=O)nc43)cc21 tested on Fibroblast growth factor receptor 2 (Homo sapiens).
*A* < 5.00

*Q* Name the recorded pIC50 of COc1cc(OC)c(Cl)c(-c2ncc3c(-c4ccc5c(c4)CCNC5=O)n[nH]c3n2)c1Cl , assay system Fibroblast growth factor receptor 2 (Homo sapiens).
*A* > 7.00

*Q* Return reported pIC50 for target or system Fibroblast growth factor receptor 2 (Homo sapiens), item COc1cc(OC)c(Cl)c(-c2cc3[nH]nc(-c4cnn(CC(=O)N5CCN(C)CC5)c4)c3cn2)c1Cl .
*A* > 7.00

*Q* Fill: pIC50 (Fibroblast growth factor receptor 2 (Homo sapiens)) for this compound Cc1ccc(NC(=O)c2ccc(C)c(C(F)(F)F)c2)cc1C#Cc1nn([C@H]2CC[C@H](O)CC2)c2ncnc(N)c12
*A* 7.40

* * *

// molecules with reported pIC50 on Fibroblast growth factor receptor 2 (Homo sapiens, UniProt P21802), multi-publication
pIC50: −log10 of the molar value.

Use the examples below as a reference point.
>>> df
                                   molecule  parameter_measured  value_observed
0  COc1cc(OC)c(F)c(N2Cc3cnc(Nc4cccc(F)c4)cc3C3(CC3)C2=O)c1F               pIC50          > 7.00
1  N#Cc1cnc(NC(=O)N2CCCc3cc(CO)c(C=O)nc32)cc1O[C@H]1CCOC1               pIC50          < 5.00
2  COCCNc1cc(NC(=O)N2CCCc3cc(C4CCOCC4)c(C=O)nc32)ncc1C#N               pIC50          < 5.00
3  COc1cc(OC)c(F)c(-c2ncc3c(-c4ccc5c(c4)CN(CCN(C)C)C5=O)n[nH]c3n2)c1F               pIC50          > 7.00
4  COc1cc(OC)c(F)c(N2Cc3cnc(N)c(C#N)c3N(CC3CC3)C2=O)c1F               pIC50          > 7.00

Switching to the query record.
*Q* Provide only the value of recorded pIC50 for COc1cc(OC)c(F)c(N2Cc3cnc(NC4CCCC4)cc3C3(CC3)C2=O)c1F
*A* > 7.00

* * *

Compiled record: IC50 values for UniProt:P21802 across several sources.

In [3]: df
Out[3]:
                                   compound  value_observed
0  CCN1Cc2cc(-c3n[nH]c4cc(-c5c(F)c(OC)cc(OC)c5Cl)ncc34)ccc2C1=O        < 100 nM
1  CN(C)CC(C)(O)CNc1cc(NC(=O)N2CCCc3cc(CO)c(C=O)nc32)ncc1C#N (racemic)      > 10000 nM
2  Clc1cccc(Nc2cncc(-c3cncc(NCCCn4cccn4)c3)n2)c1          326 nM

Note: attention shifts to another entry.
*Q* Annotate the compound COc1cc(OC)c(F)c(N2Cc3cnc(N)c(C#N)c3N(c3ccccc3F)C2=O)c1F with its measured IC50.
*A* < 100 nM

* * *

# IC50 against Fibroblast growth factor receptor 2 (Homo sapiens, UniProt P21802), merged from multiple literature sources

As a guide, the following entries are already answered.
In [3]: df
Out[3]:
                                   compound  parameter_measured  value_observed
0  COc1cc(OC)c(F)c(N2Cc3cnc(N)c(-c4ccnn4C)c3N(C)C2=O)c1F                IC50        < 100 nM
1  C=CC(=O)NCc1cc2c(cn1)CN(c1c(F)c(OC)cc(OC)c1F)C(=O)N2CC#N                IC50        > 200 nM
2  COc1cc(OC)c(Cl)c(-c2cc3[nH]nc(-c4cnn(CC(=O)N5CCC(C#N)C5)c4)c3cn2)c1Cl (stereo not shown)                IC50        < 100 nM

*Q* Find the measured IC50 of C=CC(=O)NCc1cc2c(cn1)CN(c1c(F)c(OC)cc(OC)c1F)C(=O)N2CC1CCN(C(=O)NC(C)C)CC1 with Fibroblast growth factor receptor 2 (Homo sapiens, UniProt P21802) as test system.
*A* > 200 nM

*Q* Write down measured IC50 (Fibroblast growth factor receptor 2 (Homo sapiens, UniProt P21802)) for this compound. C=CC(=O)N1CC(Nc2ncc3cc(-c4c(Cl)c(OC)cc(OC)c4Cl)ccc3n2)c2ccccc21 (stereo not shown)
*A* 56 nM

*Q* Give IC50 only, for C=CC(=O)NCc1cc2c(cn1)CN(c1c(F)c(OC)cc(OC)c1F)C(=O)N2CCF , using Fibroblast growth factor receptor 2 (Homo sapiens, UniProt P21802) data.
*A* > 200 nM

*Q* Please tell me the measured IC50 for COc1cc(OC)c(Cl)c(-c2ncc3c(-c4ccc5c(c4)CN(C4CC4)C5=O)n[nH]c3n2)c1Cl ; system: Fibroblast growth factor receptor 2 (Homo sapiens, UniProt P21802).
*A* < 100 nM

* * *

This section presents pIC50 values reported for Fibroblast growth factor receptor 2 (Homo sapiens, UniProt P21802) in the literature.
pIC50: −log10 of the molar value.

// solved cases for pIC50 follow
                                   compound  parameter_measured  value_observed
0  COc1cc(OC)c(F)c(N2Cc3cnc(N)c(-c4cn[nH]c4)c3N(C)C2=O)c1F               pIC50          > 7.00
1  COCCNC(=O)Cn1cc(-c2n[nH]c3cc(-c4c(Cl)c(OC)cc(OC)c4Cl)ncc23)cn1               pIC50          > 7.00
2  COc1cc(OC)c(Cl)c(-c2cnc3c(-c4cnn(C)c4)n[nH]c3c2)c1Cl               pIC50          > 7.00
3  COc1cc(OC)c(F)c(-c2ncc3c(-c4ccc(N5CCN(C)CC5)nc4)n[nH]c3n2)c1F               pIC50          > 7.00
4  COc1cc(OC)c(F)c(-c2ncc3c(-c4ccc5c(c4)CCN(S(C)(=O)=O)C5)n[nH]c3n2)c1F               pIC50          > 7.00
5  Cc1cnc(Nc2ccc(N3CCS(=O)(=O)CC3)cc2)nc1Nc1ccc2cn[nH]c2c1               pIC50            6.93
6  COc1cc(OC)c(F)c(-c2ncc3c(-c4ccc5c(c4)CC(C(=O)N(C)C)O5)n[nH]c3n2)c1F (single isomer, unassigned)               pIC50          > 7.00
7  CS(=O)(=O)Nc1cc(-c2ncc(F)cc2F)cc(-c2cnn3cc(C4CC4)ccc23)c1               pIC50            7.31
8  CS(=O)(=O)Nc1cc(-c2ccc(F)cc2F)cc(-c2cnn3cc(-c4cnn(CC(O)CO)c4)ccc23)c1 (centres unmarked)               pIC50            8.36
9  Clc1cccc(Nc2cncc(-c3cncc(NCCCN4CCCCC4)c3)n2)c1               pIC50            6.56

*Q* Give recorded pIC50. Cn1cc(-c2ccc3c(-c4cc(NCC(C)(C)O)cc(-c5ncc(F)cc5F)c4)cnn3c2)cn1
*A* 8.64

*Q* Read the entry COc1cc(OC)c(F)c(N2Cc3cnc(N)cc3C3(CC3)C2=O)c1F and write its reported pIC50.
*A* > 7.00

*Q* Please report the measured pIC50 for C=CC(=O)NCc1cc2c(cn1)CN(c1c(F)c(OC)cc(OC)c1F)C(=O)N2C[C@H]1CCOC1
*A* < 6.70

*Q* Recall and state the measured pIC50 for COc1cc(OC)c(F)c(N2Cc3cnc(N)c(C#N)c3N(C)C2=O)c1F .
*A* > 7.00

*Q* Look up pIC50 of O=Cc1ccc2c(n1)N(C(=O)Nc1ccc(C(F)(F)F)cn1)CCO2 and report it.
*A* < 5.00

*Q* Identify the reported pIC50 for the following entry. COc1cc(OC)c(Cl)c(-c2cc3[nH]nc(-c4ccc5c(c4)COC5=O)c3cn2)c1Cl
*A* > 7.00

*Q* Report pIC50, nothing else, for this compound: COc1cc(OC)c(Cl)c(-c2cc3[nH]nc(-c4cnn(C(C)C#N)c4)c3cn2)c1Cl (centres unmarked)
*A* > 7.00

*Q* Give the reported value of pIC50 for this record: Cc1cnc(Nc2ccc(N3CCN(C)CC3)cc2)nc1Nc1ccc2cn[nH]c2c1
*A* 7.09

*Q* Supply pIC50 value. Item: COCCNc1cc(NC(=O)N2CCCc3cc(CN4CCOCC4=O)c(C=O)nc32)ncc1C#N
*A* < 5.00

*Q* Look up pIC50 of CCS(=O)(=O)Nc1cc(-c2ccc(F)cc2F)cc(-c2cnn3cc(-c4cnn(C)c4)ccc23)n1 and report it.
*A* 9.33
